ASSAYED_TARGET: Voltage-gated inwardly rectifying potassium channel KCNH2 (Homo sapiens)
PROTOCOL_DESCRIPTION: hERG protection against dofetilide inhibition, confirmation, cell-based, thallium flux, duplicate retest, dofetilide IC70 (AID 1835)
CONDITION: hERG cell line, FluxOR thallium flux, dofetilide-blocked; at 10 µM
About 750 (31%) of roughly 2,400 compounds were called active.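 Rule for the calls: active = median signal gain over dofetilide-blocked control wells reaching their mean plus 3 SD, so readout 1 at least 0; inactive = the rest.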 The list shows a part of the results.
Labels: y for active, n for inactive

MOLECULE	CATEGORY
CCN(CC)CCCNC(=O)c1cn(-c2cccc(OC)c2)c(=O)c2ccccc12	n
COc1ccc(OC)c(S(=O)(=O)Nc2ccc(O)c3ccccc23)c1	n
O=C(N1CCOCC1)N1CCC(c2nc(-c3ccc(S(=O)(=O)N4CCOCC4)cc3)no2)CC1	n
CN(C)C(=O)c1cc(C(=O)c2ccc(Cl)cc2Cl)c[nH]1	n
O=S(=O)(Nc1ccc(O)c2ccccc12)c1ccc(F)cc1	n
CCOC(=O)c1cc2c(nc1NC(=S)NCc1ccccc1)CCCC2	n
COc1ccc(N2CC(C(=O)OCC(=O)Nc3ccccc3C)CC2=O)cc1 (stereo not drawn)	n
COC(=O)/C=C1\S/C(=N/N=C/c2ccco2)NC1=O	n
CO/N=C(\CCC(=O)O)c1cccs1	n
C=CCNC(=O)COc1ccc(Oc2ccccc2)cc1	n
COc1ccccc1NC(=O)C(=O)NNC(=O)COc1ccc2ccccc2c1	y
Cc1ccc(S(=O)(=O)Nc2ccc(O)c3ccccc23)c(C)c1	y
CCOC(=O)c1c(-c2ccc(C)o2)csc1NC(=S)NC(=O)N(C)C	y
COC(=O)CSc1nnc(COc2ccc3ccccc3c2)o1	n
O=C(O)/C=C/c1cn(-c2ccccc2)nc1-c1ccc(-c2ccc([N+](=O)[O-])cc2)o1	y
COc1cccc(NC(=O)c2nn(-c3ccc(OC)cc3OC)c(=O)c3ccccc23)c1	n
O=C(COC(=O)c1cc[n+]([O-])cc1)Nc1cc([N+](=O)[O-])ccc1Cl	n
CCCCC1C2=C(CCCC2=O)OC2=C1C(=O)CCC2	n
COc1cccc(-n2nc(C(=O)O)c3ccccc3c2=O)c1	y
C=CCSC1=C(C#N)C(c2ccccc2)CC(=O)N1 (stereo not drawn)	n
Cc1ccc(-n2c(C)cc(C(=O)CN3CCOCC3)c2C)cc1	n
O=C(c1cncc(Br)c1)N1CCc2ccccc2C1	n
CCCNC(=O)N1CCN(S(=O)(=O)c2ccc(C)cc2)CC1	n

----------
ASSAYED_TARGET: Voltage-gated inwardly rectifying potassium channel KCNH2 (Homo sapiens)
PROTOCOL_DESCRIPTION: hERG protection against dofetilide inhibition, confirmation, cell-based, thallium flux, duplicate retest, dofetilide IC70 (AID 1835)
CONDITION: hERG cell line, FluxOR thallium flux, dofetilide-blocked; at 10 µM; hits give high values
About 750 (31%) of roughly 2,400 compounds were called active. This is one part of the list.
MEASURED_ENDPOINT: activity increase over dofetilide control, less the hit threshold (%)

COMPOUND	ASSAY_VALUE
Nc1nnc(SCC(=O)OCc2ccc(F)cc2)s1	-27
C=CCN(CC=C)C(=S)NC(=O)c1ccc([N+](=O)[O-])cc1	56
O=C(c1cccc2c1-c1ccccc1C2)N1CCCCC1	-17
Cc1ccc(NC(=O)COc2cccnc2[N+](=O)[O-])cc1S(=O)(=O)N1CCOCC1	-24
CCC(=O)Nc1ccc(C(=O)NNC(=O)c2cc([N+](=O)[O-])cc([N+](=O)[O-])c2)cc1	-13
O=C1Nc2ccc(Br)cc2C1Cc1ccccc1F (stereo not given)	-17
CCOC(=O)/C=C/c1ccc2c(c1)S(=O)(=O)N(c1cccc(OC)c1)[C@H]2CC(=O)OCC	-20
C=CCN(CC=C)C(=S)NC(=O)Cc1cccc2ccccc12	17
CC(C)COn1c(=S)[nH]c2ccccc2c1=O	18
CCC1=C(OC(=O)N(CC)CC)N2C(=O)OC(=NCC3CC3)[C@]2(C)[C@H]2C1=CC[C@H]1C(=O)N(C)C(=O)[C@H]12	-1

----------
Listed here: items and their measured activity increase over dofetilide control, less the hit threshold.
ASSAYED_TARGET: Voltage-gated inwardly rectifying potassium channel KCNH2 (Homo sapiens)
PROTOCOL_DESCRIPTION: hERG protection against dofetilide inhibition, confirmation, cell-based, thallium flux, duplicate retest, dofetilide IC70 (AID 1835)
CONDITION: hERG cell line, FluxOR thallium flux, dofetilide-blocked; at 10 µM; hits give high values
The whole screen tested about 2,400 compounds, of which about 750 (31%) were called active. The list shows a part of the results.
MEASURED_ENDPOINT: activity increase over dofetilide control, less the hit threshold (%)

COMPOUND	ASSAY_VALUE
COC(=O)Nc1c(-c2ccccc2)nc2ccccn12	-4
COC(=O)CC1C(=O)NCCN1C(=S)NC(=O)c1sc2ccccc2c1Cl (stereo not given)	-1
C=CCn1c(SCC(=O)Nc2cccc(C)c2)nnc1-c1cnccn1	-18
CCN(c1ccccc1)S(=O)(=O)c1ccc(NC(=S)NC(=O)c2ccc(Br)o2)cc1	20
FC(F)c1nnc2c(Cl)cc(C(F)(F)F)cn12	-11
O=C(COc1ccc(S(=O)(=O)NCc2ccccc2)cc1Cl)NCC1CCCO1 (stereo not given)	-26
C/C(=N\Nc1nc(C)c(C)s1)c1ccc([N+](=O)[O-])cc1	22
CSc1nc2sc3c(c2c(=S)[nH]1)CC(C)(C)OC3	81
O=[N+]([O-])c1cccc(NC(=S)Nc2nc(-c3ccccc3Cl)cs2)c1	-7
O=C(NC1CCCC1)C(c1ccncc1)N(C(=O)Cn1nnc(-c2ccccc2F)n1)c1cccc(F)c1 (stereo not given)	-14
O=C(c1n[nH]c2c1CCCC2)n1ccnc1	-2
C/C(=N\Nc1cc(N2CCOCC2)ncn1)c1cccc([N+](=O)[O-])c1	-24
CCOC(=O)C1CCN(C(=O)CCS(=O)(=O)c2ccc3c(c2)CCN3C(=O)CC)CC1	-17
CCc1nc2sc3c(c2c(=S)[nH]1)CC(C)(C)OC3	-8
COc1ccc(N(CC(=O)N2CCN(Cc3ccccc3)CC2)S(C)(=O)=O)cc1OC	-3
COC(=O)c1c(N2C(=O)CC(Sc3ncccc3C(=O)O)C2=O)sc(C)c1C (stereo not given)	-14
Cc1nc(-c2ccccc2)cn(O)c1=O	16
CC1=NN(c2nc(-c3ccccc3)cs2)C(=O)C1N=Nc1ccccc1 (stereo not given)	-31
O=C(NC(=S)NCc1ccccc1)c1ccc(Br)o1	91
CC(=O)N1CCCc2cc(S(=O)(=O)NCc3ccc(C)cc3)ccc21	-1
CNC(=O)c1cc(C(=O)c2ccc(F)cc2C(F)(F)F)c[nH]1	-7
Cc1ccc(CC23CN4CCN(CC(C4)C2O)C3)c(C)c1 (stereo not given)	-14
c1ccc(SSc2ccccn2)nc1	-21
CCc1ccccc1NC(=O)CC1CS(=O)(=O)CC1CC(=O)Nc1ccccc1CC (stereo not given)	-4
O=C(CNC(=S)NC(=O)c1ccc(Br)o1)c1ccccc1	-3
COCCN1C(=O)C(=O)/C(=C(/O)c2ccc(S(=O)(=O)N3CCOCC3)cc2)C1c1ccc(OC)c(OC)c1 (stereo not given)	-17
O=C1C(c2ccccc2)C(c2ccccc2)NC(c2ccccc2)C1c1ccccc1 (stereo not given)	-17
CCN(CC(=O)NCc1ccc(Cl)cc1)C(=O)CCOc1ccc(C)cc1	-14
COc1ccc(NC(=S)NC(=O)c2ccc(Br)o2)cc1	13
CCN1CCN(C(=O)c2ccc(Cn3c(=O)[nH]c4cc(OC)c(OC)cc4c3=O)cc2)CC1	-17
CCC(=O)N1CCCc2ccccc21	-8
CCc1ccc(NC(=S)NC(=O)c2c(-c3ccccc3Cl)noc2C)cc1	-2
COc1cc(NS(=O)(=O)c2ccc(NC(=S)Nc3ccccc3)cc2)nc(OC)n1	-26
S=C(N/N=C/c1cccc2ccccc12)Nc1cccc(Cl)c1	-8
COc1cccc(C(=O)NNC(=O)C(=O)Nc2ccc(C)c(Cl)c2)c1	54
O=C(NC(=S)N(CCCCO)C1CCCCC1)c1sc2ccccc2c1Cl	29
COc1cccc(C(=O)NNC(=O)C(=O)Nc2cccc(Cl)c2C)c1	50
O=C(CSc1ncnc2c1cnn2-c1ccc(Cl)cc1)NCc1ccc2c(c1)OCO2	-2
O=c1c(-c2ccccc2)nc(-c2ccccc2)cn1O	33
COc1ccc(-c2cnn(C3CCS(=O)(=O)C3)c2N)cc1 (stereo not given)	-23
O=C(N=Nc1c(O)[nH]c2ccc([N+](=O)[O-])cc12)c1cc(-c2ccccc2Cl)nc2ccccc12	97
Cc1ccc2nc(NC(=S)NC(=O)c3cccs3)sc2c1	10
O=C(NC(=S)Nc1nc2ccccc2s1)c1cccs1	52
COc1cccc(NC(=S)NC(C)c2ccc(OC)c(OC)c2)c1 (stereo not given)	-24
COc1ccccc1CNC(=O)COC(=O)c1ccccn1	-13

----------
ASSAYED_TARGET: Voltage-gated inwardly rectifying potassium channel KCNH2 (Homo sapiens)
PROTOCOL_DESCRIPTION: hERG protection against dofetilide inhibition, confirmation, cell-based, thallium flux, duplicate retest, dofetilide IC70 (AID 1835)
CONDITION: hERG cell line, FluxOR thallium flux, dofetilide-blocked; at 10 µM; hits give high values
In all, about 2,400 compounds went through this assay and about 750 (31%) were called active. This is one part of the list.
Rule: activity increase over dofetilide control, less the hit threshold of -10% or more gives Fulfilled; anything lower gives Not fulfilled.

COMPOUND	CATEGORY
CC(C)Oc1ccccc1C1(c2ccccc2)NC(=O)NC1=O (configuration not stated)	Not fulfilled
O=C1C(=Cc2cccn2-c2ccc(O)cc2)C(=O)c2ccccc21	Not fulfilled
Cc1cccc(C(=O)NC(=S)N2CCc3ccccc3C2)c1	Fulfilled
Cc1ccc(C(=O)Nc2nc3ccccc3c(=O)s2)cc1	Fulfilled
Cc1csc(NC(=S)NC(=O)c2ccccc2)n1	Fulfilled
O=C(Nc1nc2c(Br)cc(Br)cc2c(=O)s1)C1CCC1	Fulfilled
O=C(COc1ccccc1)NC(=S)Nc1ccc2c(c1)Cc1ccccc1-2	Fulfilled
O=C(CSc1nc2ccc(NC(=O)c3ccccc3C(=O)O)cc2s1)Nc1c(Cl)cccc1Cl	Fulfilled
O=C(CNC(=O)c1ccccc1)NCc1ccc(Cl)cc1	Fulfilled
O=C(O)c1ccccc1NC(=O)c1cc2ccccc2oc1=O	Fulfilled
O=C(Nc1ccc2[nH]c(=S)sc2c1)Nc1ccccc1F	Not fulfilled
Nn1c(SCC(=O)Nc2ccc(F)cc2)nnc1C1CCCCC1	Not fulfilled
CC(C)C(O)(C#CCN1CCCC1)c1ccccc1 (configuration not stated)	Not fulfilled
CNC(=O)c1c(O)c2cccc3c2n(c1=O)CC3	Not fulfilled
O=C(NC(=S)Nc1nc2c(s1)CSc1ccccc1-2)c1ccccc1	Fulfilled
S=c1[nH]c2cc(Cl)ccc2s1	Fulfilled
CCCCCCCC/C=C\CCCCCCCC(=O)O	Fulfilled
COc1cccc(C(=O)/C=C/Nc2ccc(S(=O)(=O)Nc3cnc4ccccc4n3)cc2)c1	Not fulfilled
O=c1cc(CN2CCN(S(=O)(=O)c3ccc4c(c3)OCCO4)CC2)c2ccc(O)cc2o1	Fulfilled
CCC1Nc2ncnc(N3CCOCC3)c2N(Cc2ccc(C)cc2)C1=O (configuration not stated)	Not fulfilled
CN1C(=O)NC(c2cccc([N+](=O)[O-])c2)C2=C1CC(C)(C)CC2=O (configuration not stated)	Not fulfilled
O=C(NC(=S)Nc1ccc(C(F)(F)F)cc1)c1csnn1	Fulfilled
CCN(CC)c1ccc(/C=c2\sc3nnc(-c4ccccc4Cl)n3c2=O)cc1	Not fulfilled
CCOc1ccccc1Nc1nc(-c2sc(C)nc2C)cs1	Fulfilled
COC(=O)c1ccc(C(=O)NC(=S)Nc2nc3c(s2)CCCC3)cc1	Fulfilled
O=C1C=C(Nc2cccc3cccnc23)c2ccccc2C1=O	Fulfilled
COc1cc(S(=O)(=O)n2cnc(C)c2)ccc1Cl	Not fulfilled
CCN(CC)C(=O)CN1C(=O)c2cccc3cccc(c23)C1=O	Not fulfilled
CSc1nsc(SCC(=O)Nc2ccccc2C(=O)O)n1	Fulfilled
CCOC(=O)c1sc(NC(=S)NC(=O)c2cccc(OC)c2)nc1C	Fulfilled
Cc1ccc(C2C(C#N)=C(N)OC3=C2C(=O)CC(C)(C)C3)s1 (configuration not stated)	Fulfilled
CN(CC(=O)Nc1nc2ccccc2s1)S(=O)(=O)c1ccc(Cl)cc1	Not fulfilled
CN1C(=O)/C(=N/OC(=O)c2ccccc2)c2ccccc21	Fulfilled
O=C(CNCC1CCCO1)N1CCCCCC1 (configuration not stated)	Not fulfilled
NS(=O)(=O)c1ccc(NC(=O)c2ccc(S(=O)(=O)N3CCc4ccccc43)cc2)cc1	Fulfilled
Cc1cc(C)c2nc(NC(=O)C3CCCO3)sc2c1 (configuration not stated)	Fulfilled
COc1ccc(S(=O)(=O)Nc2ccc(Cl)cn2)c(C)c1C	Fulfilled
O=C(Nc1cccn(Cc2c(Cl)cccc2Cl)c1=O)c1ccccc1Cl	Not fulfilled
O=C(NCC1CCS(=O)(=O)C1)Oc1ccccc1 (configuration not stated)	Not fulfilled
Cc1nc2scc(C)n2c(=O)c1S(=O)(=O)Nc1ccc(N2CCOCC2)cc1	Fulfilled
CC1(C)CC2CC(C)(CN2C(=S)NC(=O)c2ccccc2Cl)C1 (configuration not stated)	Fulfilled
COc1ccc(CCNC(=O)c2cc3ccccc3oc2=O)cc1	Fulfilled
Cc1ccc(C)c(N2CCN(S(=O)(=O)c3ccc(-c4ccc(=O)[nH]n4)o3)CC2)c1	Not fulfilled
N#Cc1c(-c2ccc(Cl)cc2)cc(-c2cccs2)nc1SCC(=O)O	Not fulfilled

Data provenance is PubChem BioAssay AID1835.
